- measurementTarget: fusion protein PRP
quantityKind: relative cleavage efficiency

OmpT protease variant OmpT D97L (protein) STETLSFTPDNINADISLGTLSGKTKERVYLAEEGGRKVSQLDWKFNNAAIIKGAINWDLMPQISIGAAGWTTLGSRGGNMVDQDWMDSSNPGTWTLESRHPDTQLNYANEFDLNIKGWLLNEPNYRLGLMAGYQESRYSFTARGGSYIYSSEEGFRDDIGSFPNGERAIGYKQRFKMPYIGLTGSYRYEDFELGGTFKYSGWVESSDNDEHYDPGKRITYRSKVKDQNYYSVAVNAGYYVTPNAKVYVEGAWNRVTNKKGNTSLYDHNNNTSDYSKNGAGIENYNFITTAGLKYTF
less than 3%
OmpT protease variant OmpT D97T (protein) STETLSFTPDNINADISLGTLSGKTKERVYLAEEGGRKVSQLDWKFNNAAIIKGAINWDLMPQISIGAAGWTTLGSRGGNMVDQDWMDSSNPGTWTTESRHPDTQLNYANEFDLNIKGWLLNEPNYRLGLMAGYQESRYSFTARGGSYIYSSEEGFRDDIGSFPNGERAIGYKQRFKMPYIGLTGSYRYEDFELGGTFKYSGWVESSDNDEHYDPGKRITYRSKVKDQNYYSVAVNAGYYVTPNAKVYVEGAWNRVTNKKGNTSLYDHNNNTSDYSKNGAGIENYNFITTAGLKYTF
less than 3%
